Target: Tyrosine-protein phosphatase non-receptor type 11 (Homo sapiens)
Sequence (Q06124 whole entry): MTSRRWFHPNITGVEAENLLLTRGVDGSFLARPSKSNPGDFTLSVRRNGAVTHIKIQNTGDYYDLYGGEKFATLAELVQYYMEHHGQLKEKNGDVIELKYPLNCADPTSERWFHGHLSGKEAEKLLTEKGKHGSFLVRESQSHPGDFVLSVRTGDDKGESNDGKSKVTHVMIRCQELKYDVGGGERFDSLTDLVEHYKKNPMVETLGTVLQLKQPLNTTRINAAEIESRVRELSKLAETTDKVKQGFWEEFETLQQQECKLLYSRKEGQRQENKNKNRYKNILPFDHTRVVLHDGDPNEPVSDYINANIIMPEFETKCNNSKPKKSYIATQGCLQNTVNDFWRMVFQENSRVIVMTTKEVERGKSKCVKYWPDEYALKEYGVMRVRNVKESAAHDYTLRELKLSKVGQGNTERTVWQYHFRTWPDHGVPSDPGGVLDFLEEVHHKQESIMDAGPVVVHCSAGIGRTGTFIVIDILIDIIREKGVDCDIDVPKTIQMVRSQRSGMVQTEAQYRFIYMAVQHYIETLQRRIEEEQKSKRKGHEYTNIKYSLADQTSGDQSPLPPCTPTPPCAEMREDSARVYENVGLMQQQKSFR
Test: At the basal state, SHP2 is auto-inhibited and access of substrates to the catalytic site is blocked by the […] interactions between the SH2 domains and the PTP domain. When bis-tyrosyl-phosphorylated peptides bind to SH2 domain of SHP2, the PTP domain becomes available for substrate recognition and reaction catalysis and SHP2 is allosterically activated. SHP2 catalytic activity can be measured using a fluorogenic artificial substrate DiFMUP.The phosphatase reactions were carried out at room temperature in 384-well black polystyrene plates (Greiner Bio-One, Cat #784076) using assay buffers containing 60 mM HEPES, pH 7.2, 75 mM NaCl, 75 mM KCl, 1 mM EDTA, 0.05% P-20, and 5 mM DTT.0.33 nM of […] was co-incubated with of 0.5 μM of bisphos-IRS 1 peptide (sequence: H2N-LN(pY)IDLDLV(dPEG8)LST(pY)ASINFQK-amide) and various concentrations of compounds for 30-60 min at room temperature. Then the reaction was initiated by addition of the surrogate substrate DiFMUP (Invitrogen, Cat #D6567, 100 uM final).The real-time conversion of DiFMUP to DiFMU (6,8-difluoro-7-hydroxyl-4-methyl-coumarin) was measured every 5 min for 30 min using a microplate reader (CLARIOstar, BMG Labtech) with excitation and emission wavelengths of 340 nm and 450 nm, respectively. Initial reaction rates were determined by linear fitting of the data and the inhibitor dose response curves were analyzed using normalized IC50 regression curve fitting with control based normalization.

>  <compound>
C[C@@H]1OCC2(CCN(c3ncc(Sc4ccnc(N)c4Cl)nc3O)CC2)[C@@H]1N

>  <IC50, nM>
13

$$$$
>  <compound>
Nc1nccc(Sc2cnc(N3CCC4(CC3)Cc3ncccc3[C@H]4N)c(CO)n2)c1Cl

>  <IC50, nM>
0.6

$$$$
>  <compound>
C[C@@H]1OCC2(CCN(c3ncc(Sc4ccnc(N5CCCC5)c4Cl)nc3[S+](C)[O-])CC2)[C@@H]1N (stereo partly specified)

>  <IC50, nM>
13

$$$$
>  <compound>
C[C@@H]1OCC2(CCN(c3ncc(Sc4ccnc(N)c4Cl)nc3Cl)CC2)[C@@H]1N

>  <IC50, nM>
12

$$$$
>  <compound>
COC1CCc2[nH]c3cc(Sc4cnc(N5CCC6(CC5)CO[C@@H](C)[C@H]6N)c(CO)n4)c(Cl)nc3c2C1 (stereo partly specified)

>  <IC50, nM>
5.5

$$$$
>  <compound>
Nc1nccc(Sc2cnc(N3CCC4(CC3)CCC3(CC3)C4N)c(CO)n2)c1Cl (stereo unspecified)

>  <IC50, nM>
3

$$$$
>  <compound>
CN1C(=O)CCC12CC(N)C1(CCN(c3ncc(Sc4ccnc(N)c4Cl)nc3CO)CC1)C2 (stereo unspecified)

>  <IC50, nM>
269

$$$$
>  <compound>
C[C@@H]1OCC2(CCN(c3ncc(Sc4ccnc(F)c4Cl)nc3[S+](C)[O-])CC2)[C@@H]1N (stereo partly specified)

>  <IC50, nM>
21

$$$$
>  <compound>
C[C@@H]1OCC2(CCN(c3ncc(Sc4cc5[nH]c6c(c5nc4Cl)CCCC6O)nc3CO)CC2)[C@@H]1N (stereo partly specified)

>  <IC50, nM>
4.8

$$$$
>  <compound>
C[C@@H]1OCC2(CCN(c3ncc(Sc4cc5[nH]c6c(c5nc4Cl)CC(O)CC6)nc3CO)CC2)[C@@H]1N (stereo partly specified)

>  <IC50, nM>
3.5

$$$$
>  <compound>
C[C@@H]1OCC2(CCN(c3ncc(Sc4ccnc(N)c4Cl)nc3CO)CC2)[C@@H]1N

>  <IC50, nM>
0.9

$$$$
>  <compound>
COc1nccc(Sc2cnc(N3CCC4(CC3)CO[C@@H](C)[C@H]4N)c([S+](C)[O-])n2)c1Cl (stereo partly specified)

>  <IC50, nM>
18

$$$$
>  <compound>
C[C@@H]1OCC2(CCN(c3ncc(Sc4cccnc4C(F)(F)F)nc3[S+](C)[O-])CC2)[C@@H]1N (stereo partly specified)

>  <IC50, nM>
85

$$$$
>  <compound>
C[C@@H]1OCC2(CCN(c3ncc(Sc4ccnc(Cl)c4Cl)nc3[S+](C)[O-])CC2)[C@@H]1N (stereo partly specified)

>  <IC50, nM>
6

$$$$
>  <compound>
C[C@@H]1OCC2(CCN(c3ncc(Sc4cc(N)nc(Cl)c4Cl)nc3[S+](C)[O-])CC2)[C@@H]1N (stereo partly specified)

>  <IC50, nM>
3

$$$$
>  <compound>
C[C@@H]1OCC2(CCN(c3ncc(Sc4ccnc(N)c4Cl)nc3[S+](C)[O-])CC2)[C@@H]1N (stereo partly specified)

>  <IC50, nM>
13

$$$$
